Target: NLRP3 (Homo sapiens)
Sequence (Q96P20 whole entry): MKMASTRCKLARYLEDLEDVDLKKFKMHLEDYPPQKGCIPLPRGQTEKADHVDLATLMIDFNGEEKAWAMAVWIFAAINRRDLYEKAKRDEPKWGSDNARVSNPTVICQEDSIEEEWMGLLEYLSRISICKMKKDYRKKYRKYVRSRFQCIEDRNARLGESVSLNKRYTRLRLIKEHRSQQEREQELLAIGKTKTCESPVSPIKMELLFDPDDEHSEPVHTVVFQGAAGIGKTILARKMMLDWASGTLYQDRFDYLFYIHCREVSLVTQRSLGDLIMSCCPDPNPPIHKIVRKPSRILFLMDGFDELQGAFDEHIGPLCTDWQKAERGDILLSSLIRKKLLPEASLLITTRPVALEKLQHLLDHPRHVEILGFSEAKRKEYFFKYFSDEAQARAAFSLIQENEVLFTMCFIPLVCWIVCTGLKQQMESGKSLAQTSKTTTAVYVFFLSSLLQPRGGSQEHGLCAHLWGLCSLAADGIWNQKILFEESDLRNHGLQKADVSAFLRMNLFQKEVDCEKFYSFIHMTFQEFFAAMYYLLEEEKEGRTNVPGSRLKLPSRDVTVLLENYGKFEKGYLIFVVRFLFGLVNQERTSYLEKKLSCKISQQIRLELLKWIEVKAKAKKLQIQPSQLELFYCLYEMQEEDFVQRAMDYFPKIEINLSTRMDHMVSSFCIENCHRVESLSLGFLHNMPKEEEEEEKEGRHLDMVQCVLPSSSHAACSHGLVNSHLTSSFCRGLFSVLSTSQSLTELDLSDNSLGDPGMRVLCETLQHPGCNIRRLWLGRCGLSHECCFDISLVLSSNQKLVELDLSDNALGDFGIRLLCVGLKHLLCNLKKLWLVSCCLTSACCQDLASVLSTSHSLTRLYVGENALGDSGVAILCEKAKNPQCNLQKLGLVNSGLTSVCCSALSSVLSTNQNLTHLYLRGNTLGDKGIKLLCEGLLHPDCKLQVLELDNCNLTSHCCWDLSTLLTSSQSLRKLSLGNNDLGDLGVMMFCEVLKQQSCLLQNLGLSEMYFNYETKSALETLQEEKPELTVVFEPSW
Assay: THP-1 cells pyroptosis assay
Format: cell-based
Set-up: Seed THP-1 cells (25,000 cells/well) containing 1.0 μg/ml LPS; host or cells: THP-1 cells, LPS-primed, nigericin-stimulated
Conditions: 1.0 μg/ml LPS, nigericin 5 μM, resazurin readout
pIC50: −log10 of the molar value.
attribute.measured: pIC50

Observe how each entry below is paired with its result.
>>> df
                                 cpd_smiles   test_result
0  CCN(CCO)C(=O)c1cc(S(=O)(=O)NC(=O)Nc2c3c(cc4c2CCC4)CCC3)nn1C  6.19 to 6.80
1  CC(C)c1cc(F)cc(C(C)C)c1NC(=O)NS(=O)(=O)c1cc(C(=O)N(C)C)n(C)n1  6.19 to 6.80
2  CCN(C)C(=O)c1cc(S(=O)(=O)NC(=O)Nc2c3c(cc4c2CCC4)CCC3)nn1C  6.80 to 7.40
3  CC(=O)N(C)Cc1cc(S(=O)(=O)NC(=O)Nc2c3c(cc4c2CCC4)CCC3)nn1C(C)C  6.80 to 7.40
4  CC(C)c1cccc(C(C)C)c1NC(=O)NS(=O)(=O)c1cc(C(=O)N(C)C)n(C)n1  6.19 to 6.80
5  COCCNC(=O)c1cc(S(=O)(=O)NC(=O)Nc2c3c(cc4c2CCC4)CCC3)nn1C  5.00 to 5.59
6  Cn1nc(S(=O)(=O)NC(=O)Nc2c3c(cc4c2CCC4)CCC3)cc1C(=O)N(CCO)CCO  6.19 to 6.80
7  CNC(=O)c1cc(S(=O)(=O)NC(=O)Nc2c3c(cc4c2CCC4)CCC3)nn1C  5.59 to 6.19

Task: Data request, read-out pIC50, for CC(C)c1cccc(C(C)C)c1NC(=O)NS(=O)(=O)c1cc(C(=O)N2CC(F)C2)n(C)n1
Result: 5.59 to 6.19
